# Target: T1, TBC1D23 C-terminal domain (mouse, UniProt Q8K0F1 559-684)
# T1 construct: TBC1D23, mouse, UniProt Q8K0F1, C-terminal domain ending with VLDALES at residue 684; used for ITC and for the 3.3 Å crystals; also called the C-terminal domain; TBC1D23 full-length C-terminal domain; source: E. coli BL21 plyS, purified (glutathione-Sepharose, GST cleaved with thrombin, Superdex 200)
# T1 sequence (Q8K0F1 559-684): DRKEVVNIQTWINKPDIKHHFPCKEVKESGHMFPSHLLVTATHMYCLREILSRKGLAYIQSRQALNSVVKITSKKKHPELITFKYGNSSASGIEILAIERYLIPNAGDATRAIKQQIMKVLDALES
# Assay Info: ITC; peptide (0.8 to 5 mM) titrated into 100 μM TBC1D23 C-terminal domain, 20°C, 100 mM NaCl, 100 mM tris pH 7.4, 1 mM TCEP, Nano ITC
# Condition Notes: both partners purified
pKd: −log10 of the molar value.
Measured Metric: pKd

Annotate the binder DDNSLYHRGFTED (peptide, UniProt O14662 209-221, looked up, syntaxin-16, human, peptide 209 to 221 as m28; source: peptide) [syntaxin-16 peptide T212S] with its measured pKd.
~4.52

Annotate the binder DDNTLWHRGFTED (peptide, UniProt O14662 209-221, looked up, syntaxin-16, human, peptide 209 to 221 as m28; source: peptide) [syntaxin-16 peptide Y214W] with its measured pKd.
~5.15

Annotate the binder DDNTLFHRGFTED (peptide, UniProt O14662 209-221, looked up, syntaxin-16, human, peptide 209 to 221 as m28; source: peptide) [syntaxin-16 peptide Y214F] with its measured pKd.
~4.82

Annotate the binder DDNTLYHRGFTED (peptide, UniProt O14662 209-221, looked up, syntaxin-16, human, residues 209 to 221, beginning 209DDNTLY (T212, L213, Y214, R216); also called syntaxin-16 peptide; wild type; source: peptide) [syntaxin-16 (209–221) peptide] with its measured pKd.
~5.85

Data provenance: paper PMC11093223
